molecular target: p110δ/p85α (Homo sapiens (Human), UniProt O00329); experiment: PI 3-Kinase (human) HTRF assay, p110δ/p85α; type: biochemical; conditions: in vitro; read-out: PI3K δ IC50
Sequence (O00329 whole entry): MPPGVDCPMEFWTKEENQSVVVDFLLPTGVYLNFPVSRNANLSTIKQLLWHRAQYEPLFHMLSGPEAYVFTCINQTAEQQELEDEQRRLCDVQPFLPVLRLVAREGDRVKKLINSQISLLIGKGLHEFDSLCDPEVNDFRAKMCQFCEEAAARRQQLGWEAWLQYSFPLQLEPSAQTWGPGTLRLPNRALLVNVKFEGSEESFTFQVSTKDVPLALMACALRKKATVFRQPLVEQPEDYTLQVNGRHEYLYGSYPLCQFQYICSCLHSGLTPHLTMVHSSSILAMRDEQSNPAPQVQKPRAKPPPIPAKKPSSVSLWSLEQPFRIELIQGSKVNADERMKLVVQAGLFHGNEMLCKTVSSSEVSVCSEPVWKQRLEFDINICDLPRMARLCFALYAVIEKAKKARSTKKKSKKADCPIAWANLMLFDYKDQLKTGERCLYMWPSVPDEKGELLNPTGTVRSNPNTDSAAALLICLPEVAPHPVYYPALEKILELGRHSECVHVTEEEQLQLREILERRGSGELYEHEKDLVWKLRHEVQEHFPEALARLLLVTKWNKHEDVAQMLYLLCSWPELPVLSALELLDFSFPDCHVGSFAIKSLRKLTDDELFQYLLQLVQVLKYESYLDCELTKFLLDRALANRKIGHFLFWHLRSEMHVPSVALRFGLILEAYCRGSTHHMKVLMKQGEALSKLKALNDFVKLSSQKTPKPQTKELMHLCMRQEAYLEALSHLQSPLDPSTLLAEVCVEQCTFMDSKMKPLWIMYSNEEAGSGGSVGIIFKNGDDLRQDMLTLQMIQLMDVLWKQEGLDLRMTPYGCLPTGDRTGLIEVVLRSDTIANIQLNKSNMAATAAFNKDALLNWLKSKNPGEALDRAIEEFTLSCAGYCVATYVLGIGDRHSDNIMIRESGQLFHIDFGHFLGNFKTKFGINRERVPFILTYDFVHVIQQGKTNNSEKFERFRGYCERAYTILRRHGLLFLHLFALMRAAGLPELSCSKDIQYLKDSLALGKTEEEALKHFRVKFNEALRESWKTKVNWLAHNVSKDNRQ
Sequence (P27986 whole entry partner): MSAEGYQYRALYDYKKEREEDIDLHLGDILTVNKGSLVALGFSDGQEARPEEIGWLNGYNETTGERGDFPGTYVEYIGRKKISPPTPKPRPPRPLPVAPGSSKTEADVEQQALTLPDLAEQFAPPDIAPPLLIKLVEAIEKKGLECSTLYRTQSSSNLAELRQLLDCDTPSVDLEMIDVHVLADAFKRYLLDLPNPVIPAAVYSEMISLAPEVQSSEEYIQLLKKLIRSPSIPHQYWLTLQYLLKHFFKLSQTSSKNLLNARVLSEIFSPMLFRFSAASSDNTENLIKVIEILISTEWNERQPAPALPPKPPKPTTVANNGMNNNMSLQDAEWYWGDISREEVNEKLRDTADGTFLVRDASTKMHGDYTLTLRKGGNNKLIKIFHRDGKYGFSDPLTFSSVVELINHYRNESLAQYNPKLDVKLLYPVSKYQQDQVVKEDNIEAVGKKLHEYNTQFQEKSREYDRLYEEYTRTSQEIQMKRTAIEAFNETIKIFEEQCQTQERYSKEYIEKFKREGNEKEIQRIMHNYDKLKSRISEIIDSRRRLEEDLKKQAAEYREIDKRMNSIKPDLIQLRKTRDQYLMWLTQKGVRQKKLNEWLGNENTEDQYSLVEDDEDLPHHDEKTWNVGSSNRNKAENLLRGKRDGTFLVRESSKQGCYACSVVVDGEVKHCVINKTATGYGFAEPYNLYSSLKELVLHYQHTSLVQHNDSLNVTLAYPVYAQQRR
Parameter: IC50. Scope: all listed entries.

Examples with answers:
INSERT INTO measurements (input_smiles, result_value) VALUES
  ('Cc1cc(-c2ccc3ncc(N4CC(N5CCOCC5)C4)nc3c2)cc2nc(N)oc12', '< 10 µM'),
  ('CCN(CC)CC(=O)N1CCN(c2cnc3ccc(-c4ccc5oc(N)nc5c4)cc3n2)CC1', '< 10 µM');

// IC50 lookup, key: `Nc1nc2cc(-c3ccc4oc(N)nc4c3)ccc2o1`
< 10 µM

* * *

target: p110α/p85α (Homo sapiens (Human)); test: PI 3-Kinase (human) HTRF assay, p110α/p85α; format: biochemical; conditions: in vitro; read-out: PI3K α IC50
Parameter: IC50. Scope: all listed entries.

// IC50 lookup, key: Nc1nc2cc(-c3ccc4ncn(C5CCC5)c(=O)c4c3)ccc2o1 [compound 205]
< 100 nM

And what about the compound Nc1nc2cc(-c3ccc4ncc(N5CC(O)C5)nc4c3)ccc2o1 [compound 216] ?
< 100 nM

And what about the compound Cc1nccn1C1CCN(c2cnc3ccc(-c4ccc5oc(N)nc5c4)cc3n2)CC1 [compound 344] ?
< 100 nM

And what about the compound Nc1nc2cc(-c3ccc4ncc(N5CCC(n6cccn6)CC5)nc4c3)ccc2o1 [compound 337] ?
< 100 nM

And what about the compound Cc1ccc(NC(=O)c2cnc3ccc(-c4ccc5oc(N)nc5c4)cn23)cn1 [compound 294] ?
< 100 nM

And what about the compound Nc1nc2cc(-c3ccn4ncc(C(=O)N5CCOCC5)c4c3)ccc2o1 [compound 347] ?
< 1000 nM

* * *

target: p110β/p85α (Homo sapiens (Human), UniProt P42338); test: PI 3-Kinase (human) HTRF assay, p110β/p85α; format: biochemical; conditions: in vitro; read-out: PI3K β IC50
Sequence (P42338 whole entry, one chain of several): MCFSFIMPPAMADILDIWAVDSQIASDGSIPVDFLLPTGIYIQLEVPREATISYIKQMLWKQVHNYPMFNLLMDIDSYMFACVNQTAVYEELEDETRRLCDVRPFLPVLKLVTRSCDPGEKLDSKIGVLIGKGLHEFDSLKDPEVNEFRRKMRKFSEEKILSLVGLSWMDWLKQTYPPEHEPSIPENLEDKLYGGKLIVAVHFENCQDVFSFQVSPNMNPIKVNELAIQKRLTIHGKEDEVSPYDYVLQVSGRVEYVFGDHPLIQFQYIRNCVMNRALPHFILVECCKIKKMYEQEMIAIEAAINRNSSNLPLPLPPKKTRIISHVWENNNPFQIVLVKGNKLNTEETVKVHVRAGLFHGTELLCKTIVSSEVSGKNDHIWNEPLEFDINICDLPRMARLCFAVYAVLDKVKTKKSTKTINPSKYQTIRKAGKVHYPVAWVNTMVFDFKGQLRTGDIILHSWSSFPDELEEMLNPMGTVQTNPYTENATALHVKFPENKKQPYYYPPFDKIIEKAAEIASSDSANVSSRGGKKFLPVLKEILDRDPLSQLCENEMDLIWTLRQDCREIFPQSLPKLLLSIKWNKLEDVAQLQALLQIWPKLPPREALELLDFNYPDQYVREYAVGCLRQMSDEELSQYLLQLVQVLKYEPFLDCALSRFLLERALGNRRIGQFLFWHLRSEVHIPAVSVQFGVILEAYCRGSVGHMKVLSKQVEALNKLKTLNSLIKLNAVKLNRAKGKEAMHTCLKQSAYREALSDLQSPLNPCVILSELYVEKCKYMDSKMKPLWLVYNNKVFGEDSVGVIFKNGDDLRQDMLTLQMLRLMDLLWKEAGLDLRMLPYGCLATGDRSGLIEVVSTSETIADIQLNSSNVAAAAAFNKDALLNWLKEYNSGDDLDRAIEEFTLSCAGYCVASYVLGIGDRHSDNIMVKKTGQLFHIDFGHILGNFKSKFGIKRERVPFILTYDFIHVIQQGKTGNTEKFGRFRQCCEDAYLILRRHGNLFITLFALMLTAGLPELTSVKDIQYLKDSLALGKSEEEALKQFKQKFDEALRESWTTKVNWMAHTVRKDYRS
pIC50: −log10 of the molar value.
VALUE KIND: pIC50

INSERT INTO results (input_smiles, result_value) VALUES
  ('C[C@H]1CN(c2cnc3ccc(-c4ccc5oc(N)nc5c4)cc3n2)CCN1C', '> 7.00'),
  ('Cc1cn(C2CCN(c3cnc4ccc(-c5ccc6oc(N)nc6c5)cc4n3)CC2)cn1', '> 5.00'),
  ('CNC(=O)C1CN(c2cnc3ccc(-c4ccc5oc(N)nc5c4)cc3n2)C1', '> 7.00'),
  ('Nc1nc2cc(-c3ccc4ncc(N5CCn6cccc6C5)nc4c3)ccc2o1', '> 7.00');

// pIC50 lookup, key: `CC(C)(N)C(=O)N1CCN(c2cnc3ccc(-c4ccc5oc(N)nc5c4)cc3n2)CC1`
> 6.00

And what about the molecule `Nc1nc2cc(-c3ccc4ncc(N5CC(N6CCOCC6)C5)nc4c3)c(Cl)cc2o1` ?
> 5.00

And what about the molecule `Nc1nc2cc(-c3ccc4ncc(C(=O)N5CC[C@H](O)C5)n4c3)ccc2o1` ?
> 5.00

And what about the molecule `CN(C)[C@@H]1CCN(c2cnc3ccc(-c4ccc5oc(N)nc5c4)cc3n2)C1` ?
> 7.00

And what about the molecule `Nc1nc2cc(-c3ccc4ncc(N5CCN(C(=O)C6(N)CCC6)CC5)nc4c3)ccc2o1` ?
> 6.00

And what about the molecule `Nc1nc2cc(-c3ccc4ncc(C(=O)N5CCN(C6CC6)CC5)n4c3)ccc2o1` ?
> 5.00

And what about the molecule `CCN(CC)CC(=O)N1CCN(c2cnc3ccc(-c4ccc5oc(N)nc5c4)cc3n2)CC1` ?
> 5.00

And what about the molecule `Nc1nc2cc(-c3ccc4ncc(N5CC(C(=O)N6CCN(CC7CC7)CC6)C5)nc4c3)ccc2o1` ?
> 5.00

And what about the molecule `CC(=O)Nc1nc2cc(-c3ccc4nc(N)oc4c3)ccc2s1` ?
> 7.00

And what about the molecule `C[C@@H]1CN(C(=O)C2CN(c3cnc4ccc(-c5ccc6oc(N)nc6c5)cc4n3)C2)CCN1` ?
> 5.00

And what about the molecule `C[C@H]1CN(c2cnc3ccc(-c4ccc5oc(N)nc5c4)cc3c2)CCN1` ?
> 7.00

And what about the molecule `Nc1nc2cc(-c3ccc4ncn(CCN5CCCC5)c(=O)c4c3)ccc2o1` ?
> 5.00

And what about the molecule `Nc1nc2cc(-c3ccc4ncc(N5CCN(C(=O)[C@H]6CCCN6)CC5)nc4c3)ccc2o1` ?
> 7.00

* * *

biological target: p110α/p85α (Homo sapiens (Human), UniProt P42336); assay: PI 3-Kinase (human) HTRF assay, p110α/p85α; format: biochemical; details: in vitro; read-out: PI3K α IC50
Sequence (P42336 whole entry, one chain of several): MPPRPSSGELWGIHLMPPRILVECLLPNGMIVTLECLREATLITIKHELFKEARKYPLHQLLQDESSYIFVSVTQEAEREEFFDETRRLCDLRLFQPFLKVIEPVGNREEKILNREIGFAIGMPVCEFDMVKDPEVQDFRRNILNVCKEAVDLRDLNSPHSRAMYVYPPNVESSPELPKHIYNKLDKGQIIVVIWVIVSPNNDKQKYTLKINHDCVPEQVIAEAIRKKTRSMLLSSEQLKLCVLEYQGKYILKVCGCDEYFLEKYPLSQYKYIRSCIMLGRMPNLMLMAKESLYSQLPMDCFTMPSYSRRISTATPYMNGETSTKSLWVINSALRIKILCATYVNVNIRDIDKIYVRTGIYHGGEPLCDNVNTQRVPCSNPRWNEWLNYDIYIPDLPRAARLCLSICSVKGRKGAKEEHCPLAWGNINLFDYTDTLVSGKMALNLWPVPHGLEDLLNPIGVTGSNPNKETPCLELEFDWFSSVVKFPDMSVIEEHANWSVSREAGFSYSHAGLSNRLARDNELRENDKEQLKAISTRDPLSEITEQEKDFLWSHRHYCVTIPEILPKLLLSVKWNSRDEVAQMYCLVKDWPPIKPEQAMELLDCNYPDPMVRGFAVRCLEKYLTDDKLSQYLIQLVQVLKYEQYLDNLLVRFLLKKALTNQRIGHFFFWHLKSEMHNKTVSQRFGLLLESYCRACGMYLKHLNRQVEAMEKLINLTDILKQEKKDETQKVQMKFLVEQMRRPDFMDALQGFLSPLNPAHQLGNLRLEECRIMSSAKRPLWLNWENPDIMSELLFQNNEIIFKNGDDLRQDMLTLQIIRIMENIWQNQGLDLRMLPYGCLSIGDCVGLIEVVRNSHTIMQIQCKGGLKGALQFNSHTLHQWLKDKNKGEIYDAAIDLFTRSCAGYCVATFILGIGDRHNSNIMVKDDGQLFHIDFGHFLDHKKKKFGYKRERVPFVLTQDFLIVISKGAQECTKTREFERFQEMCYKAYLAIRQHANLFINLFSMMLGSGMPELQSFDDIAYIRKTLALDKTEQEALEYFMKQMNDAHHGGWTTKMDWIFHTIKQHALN
pIC50: −log10 of the molar value.
Parameter: pIC50. Scope: all listed entries.

Examples with answers:
INSERT INTO measurements (input_smiles, result_value) VALUES
  ('Nc1nc2cc(-c3ccc4ncc(N5CC(N6CCS(=O)(=O)CC6)C5)nc4c3)ccc2o1', '> 7.00'),
  ('Nc1nc2cc(-c3ccc4ncc(N5CC(N6CC[C@@H](O)C6)C5)nc4c3)ccc2o1', '> 7.00'),
  ('Nc1nc2cc(-c3ccc4sc(N)nc4c3)ccc2o1', '> 5.00'),
  ('Nc1nc2cc(-c3ccc4ncc(N5CC(N6CCN(CCO)CC6)C5)nc4c3)ccc2o1', '> 7.00');

// pIC50 lookup, key: `C[C@H]1CN(c2cnc3ccc(-c4ccc5nc(N)sc5c4)cc3n2)CCN1`
> 6.00

* * *

biological target: p110δ/p85α (Homo sapiens (Human), UniProt O00329); assay: PI 3-Kinase (human) HTRF assay, p110δ/p85α; assay type: biochemical; conditions: read-out: PI3K δ IC50
pIC50: −log10 of the molar value.
Parameter: pIC50. Scope: all listed entries.

INSERT INTO results (compound, result_value) VALUES
  ('Nc1nc2cc(-c3ccc4ncc(N5CCNCC5)nc4c3)ccc2o1', '> 5.00'),
  ('Nc1nc2cc(-c3ccc4nccc(-c5ccncc5)c4c3)ccc2s1', '> 7.00'),
  ('CC1CN(c2cnc3ccc(-c4ccc5oc(N)nc5c4)cc3n2)CC(C)N1 (centres unmarked)', '> 6.00'),
  ('CN1CC(C(=O)N2CCC(Nc3ncnc4ccc(-c5ccc6oc(N)nc6c5)cc34)CC2)C1', '> 7.00');

// pIC50 lookup, key: `Cc1nccn1-c1cnc2ccc(-c3ccc4oc(N)nc4c3)cc2n1`
> 5.00

And what about the compound `CCOC(=O)N1CCN(c2cnc3ccc(-c4ccc5oc(N)nc5c4)cc3n2)CC1` ?
> 5.00

And what about the compound `CC(=O)N1CCC(N(C)c2ncnc3ccc(-c4ccc5oc(N)nc5c4)cc23)CC1` ?
> 6.00

And what about the compound `Cn1c(=O)n(-c2ccc(C(C)(C)C#N)cc2)c2c3cc(-c4ccc5oc(N)nc5c4)ccc3ncc21` ?
> 7.00

And what about the compound `Nc1nc2cc(-c3ccc4ncc(C(=O)N5CCC(N6CCOCC6)CC5)n4c3)ccc2o1` ?
> 5.00

And what about the compound `Nc1nc2cc(-c3ccc4ncnc(NC5CCOCC5)c4c3)ccc2o1` ?
> 7.00

* * *

biological target: p110β/p85α (Homo sapiens (Human), UniProt P42338); assay: PI 3-Kinase (human) HTRF assay, p110β/p85α; type: biochemical; conditions: read-out: PI3K β IC50
VALUE KIND: IC50

Examples with answers:
INSERT INTO measurements (compound, target_system, value_kind, result_value) VALUES
  ('CNC(=O)N1CCN(c2cnc3ccc(-c4ccc5oc(N)nc5c4)cc3n2)CC1 [compound 154]', 'p110β/p85α (Homo sapiens (Human), UniProt P42338)', 'IC50', '< 1000 nM'),
  ('CN1CCN(C(=O)c2cnc3ccc(-c4ccc5nc(N)oc5c4)cn23)CC1 [compound 145]', 'p110β/p85α (Homo sapiens (Human), UniProt P42338)', 'IC50', '< 10000 nM'),
  ('Nc1nc2cc(-c3ccc4ncc(N5CCOCC5)n4n3)ccc2o1 [compound 57]', 'p110β/p85α (Homo sapiens (Human), UniProt P42338)', 'IC50', '< 1000 nM'),
  ('CCOC(=O)N1CCN(c2cnc3ccc(-c4ccc5oc(N)nc5c4)cc3n2)CC1 [compound 119]', 'p110β/p85α (Homo sapiens (Human), UniProt P42338)', 'IC50', '< 10000 nM');

Report IC50 for CN1CC(C(=O)N2CCC(Nc3ncnc4ccc(-c5ccc6oc(N)nc6c5)cc34)CC2)C1 [compound 138] tested on p110β/p85α (Homo sapiens (Human), UniProt P42338).
< 1000 nM

And what about the compound Nc1nc2cc(-c3ccc4ncc(-c5cn[nH]c5)nc4c3)ccc2o1 [compound 78] ?
< 1000 nM

And what about the compound Cn1cc(-c2cnc3ccc(-c4ccc5oc(N)nc5c4)cc3n2)cn1 [compound 94] ?
< 1000 nM

And what about the compound Nc1nc2cc(-c3ccc4ncc(-c5cn[nH]c5)n4n3)ccc2o1 [compound 59] ?
< 100 nM

And what about the compound Nc1nc2cc(-c3ccc4ncc(N5CCC(O)CC5)nc4c3)ccc2o1 [compound 99] ?
< 10000 nM

And what about the compound Nc1nc2cc(-c3ccc4ncc(-c5ccccn5)nc4c3)ccc2o1 [compound 195] ?
< 10000 nM

And what about the compound CC(=O)N1CCN(c2cnc3ccc(-c4ccc5oc(N)nc5c4)cc3n2)CC1 [compound 85] ?
< 100 nM

And what about the compound CN1CCCN(C(=O)c2cnc3ccc(-c4ccc5oc(N)nc5c4)cn23)CC1 [compound 140] ?
< 10000 nM

And what about the compound CNC(=O)CN1CCN(c2cnc3ccc(-c4ccc5oc(N)nc5c4)cc3n2)CC1 [compound 120] ?
< 1000 nM
